target: tau (Homo sapiens, UniProt P10636); test: displacement tau binding assay in AD brain homogenates with [^3H]-6; details: Table 2, displacement of [^3H]-6 (0.25 nM)
Sequence (P10636 2-758 limits assumed): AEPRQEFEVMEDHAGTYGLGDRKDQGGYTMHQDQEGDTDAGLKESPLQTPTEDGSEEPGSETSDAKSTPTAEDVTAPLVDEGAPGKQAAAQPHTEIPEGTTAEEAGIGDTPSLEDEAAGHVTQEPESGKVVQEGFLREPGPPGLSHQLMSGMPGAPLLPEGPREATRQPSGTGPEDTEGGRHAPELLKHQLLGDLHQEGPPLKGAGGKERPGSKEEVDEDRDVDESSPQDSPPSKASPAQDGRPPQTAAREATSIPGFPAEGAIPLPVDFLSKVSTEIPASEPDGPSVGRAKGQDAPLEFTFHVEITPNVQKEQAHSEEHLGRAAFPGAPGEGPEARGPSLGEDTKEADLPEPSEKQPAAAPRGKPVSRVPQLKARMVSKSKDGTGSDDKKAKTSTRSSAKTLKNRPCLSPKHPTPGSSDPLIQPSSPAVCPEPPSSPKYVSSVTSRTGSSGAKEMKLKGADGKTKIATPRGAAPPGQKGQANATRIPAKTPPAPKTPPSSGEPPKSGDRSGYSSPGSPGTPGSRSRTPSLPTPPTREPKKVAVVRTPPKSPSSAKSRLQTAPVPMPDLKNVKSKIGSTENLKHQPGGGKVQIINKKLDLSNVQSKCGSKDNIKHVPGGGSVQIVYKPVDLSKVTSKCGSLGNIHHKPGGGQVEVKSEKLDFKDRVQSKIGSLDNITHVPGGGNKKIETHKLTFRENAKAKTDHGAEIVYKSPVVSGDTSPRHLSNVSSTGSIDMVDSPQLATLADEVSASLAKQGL
pKi: −log10 of the molar value.
readout: pKi

Examples from the recorded data:
| molecule | readout | value_reported |
| --- | --- | --- |
| Nc1ccc2cc(-n3ccc4ccncc43)ncc2c1F [Compound 108] | pKi | 9.17 |
| Nc1ccc2cnc(-n3ccc4ccncc43)cc2c1I [Compound 118] | pKi | 7.61 |
| Nc1cc(I)c2cc(-n3ccc4ccncc43)ncc2c1 [Compound 128] | pKi | 8.21 |
| Nc1cc(F)cc2cc(-n3ccc4ccncc43)ncc12 [Compound 112] | pKi | 9.17 |
| Nc1cc(I)cc2cnc(-n3ccc4ccncc43)cc12 [Compound 127] | pKi | 8.93 |
| Nc1ccc(F)c2cnc(-n3ccc4ccncc43)cc12 [Compound 116] | pKi | 8.89 |

A: Nc1ccc2cc(-n3ccc4ccncc43)ncc2c1I [Compound 122]
B: Nc1cccc2cnc(-n3ccc4ccnc(F)c43)cc12 [Compound 107]
C: Nc1cc(F)c2cc(-n3ccc4ccncc43)ncc2c1 [Compound 114]
D: Nc1cc(I)cc2cc(-n3ccc4ccncc43)ncc12 [Compound 124]
INPUT: Endpoint returns the given molecules ordered by ascending pKi. Labels, requested order.
OUTPUT: B, A, D, C

* * *

biological target: tau (Homo sapiens, UniProt P10636); assay: displacement tau binding assay in AD brain homogenates with [^3H]-6; settings: Table 2, displacement of [^3H]-6 (0.25 nM)
pKi: −log10 of the molar value.
readout: pKi

| compound | pKi |
| --- | --- |
| Nc1c(F)ccc2cc(-n3ccc4ccncc43)ncc12 [Compound 110] | 8.67 |
| Nc1c(I)ccc2cc(-n3ccc4ccncc43)ncc12 [Compound 121] | 9.29 |
| Nc1cc2cc(-n3ccc4ccncc43)ncc2cc1I [Compound 126] | 9.75 |
| Nc1cccc2cnc(-n3ccc4cc(F)ncc43)cc12 [Compound 106] | 5.00 |

1: Nc1cc(F)cc2cnc(-n3ccc4ccncc43)cc12 [Compound 115]
2: Nc1ccc2cnc(-n3ccc4ccncc43)cc2c1F [Compound 111]
3: Nc1cc2cnc(-n3ccc4ccncc43)cc2cc1F [Compound 105]
INPUT: # rank_down: sort by pKi, max first Labels, requested order.
OUTPUT: 1, 3, 2
(1: 9.65, 3: 9.42, 2: 8.96)

P: Nc1ccc(F)c2cc(-n3ccc4ccncc43)ncc12 [Compound 117]
Q: Nc1ccc(I)c2cnc(-n3ccc4ccncc43)cc12 [Compound 123]
INPUT: Could you determine which record has the numerically smaller pKi? Candidates: P and Q Give the chosen item's label as your response.
OUTPUT: Q

a: Nc1cc(F)c2cnc(-n3ccc4ccncc43)cc2c1 [Compound 113]
b: Nc1cc(I)c2cnc(-n3ccc4ccncc43)cc2c1 [Compound 125]
INPUT: Could you determine which record has the numerically smaller pKi? Candidates: a and b Give the chosen item's label as your response.
OUTPUT: b

* * *

target: tau (Homo sapiens, UniProt P10636); assay: displacement tau binding assay in AD brain homogenates with [^3H]-6; conditions: Table 1, displacement of [^3H]-6 (0.25 nM)
pKi: −log10 of the molar value.
readout: pKi

Examples from the recorded data:
| test_smiles | pKi |
| --- | --- |
| CNc1cccc(-c2ccc(-n3ccc4ccncc43)nc2)c1 | 9.12 |
| c1cc(-c2ccc(-n3ccc4ccncc43)nc2)ncn1 | 8.66 |
| Cn1cc(-c2ccc(-n3ccc4ccncc43)nc2)cn1 | 8.88 |
| Oc1ccc2cc(-n3ccc4ccncc43)ncc2c1 | 9.28 |
| Fc1nccc2cnc(-n3ccc4ccncc43)cc12 | 7.85 |
| Oc1ccc2nc(-n3ccc4ccncc43)ncc2c1 | 7.95 |

P: FCOc1ccc2nc(-n3ccc4ccncc43)ncc2c1
Q: Fc1cc2ccn(-c3cc4ccccc4cn3)c2cn1
INPUT: Of the two listed items, which has the higher pKi? First: P Second: Q Give the chosen item's label as your response.
OUTPUT: P
(P: 7.89, Q: 7.28)

A: Fc1ccc2cnc(-n3ccc4ccncc43)nc2c1
B: CNc1ccc(-c2ccc(-n3ccc4ccncc43)nc2)cn1
INPUT: Could you determine which record has the numerically smaller pKi? Candidates: A and B Give the chosen item's label as your response.
OUTPUT: A
(A: 8.07, B: 9.16)
